System: NCI-H522 lung
Assay: NCI-60 one-dose screen, 48 h
Conditions: 10 µM
About 83,000 compounds went through this panel and 20% of them were active in at least one assay; those are over-represented in the sample as a whole. Calls of active or inactive are those of the source. Rule for the calls: active = growth percent below 10; inactive = the rest.
Possible outcomes: y (active), n (inactive)

                                    molecule  group_label
 0  CC(=O)Nc1ccc(-n2cnc3cc(-c4ccc(O)cc4)ccc32)cc1C            y
 1  Cc1ccc(/C(N)=N/c2sc(-c3ccccc3)nc2-c2ccccc2)cc1            n
 2  O=c1[nH]c2ccccc2cc1CSc1ccc(Nc2nccc(-c3ccc(C(F)(F)F)cc3)n2)cc1            n
 3  O=C(O)CCCCCCCCCCN1C(=O)/C(=C/c2cnc(-c3ccccc3)s2)SC1=S            n
 4     COc1ccc(-c2c(N)c(=O)n(C)c3ccccc23)cc1            n
 5  O=C(/C=C/Nc1ccccc1)c1ccc2c(c1)Nc1ccccc1S2            n
 6  COc1ccc(CN2[C@@H](C(=O)NCc3ccc(C(=O)NO)cc3)Cc3c([nH]c4ccccc34)[C@@H]2C)cc1            y
 7  C/C(=C\c1ccc(O)cc1O)c1ccc2ccc(O)cc2[o+]1            n
 8  Cc1ccc(/C=C/C(=O)c2ccc(NC(=O)CSc3nnc(-c4c[nH]c5ccccc45)n3-c3ccccc3)cc2)c(C)c1            n
 9  COc1ccc(-c2cc(C(=O)N=Nc3c(O)[nH]c4ccccc34)c3ccccc3n2)cc1            n
10  O=C1Nc2ccc(Cl)cc2/C1=C/c1ccc(OCc2ccccn2)cc1            n
11  O=C(Nc1ccc(Cl)c([N+](=O)[O-])c1)Nc1ccc(Cl)c([N+](=O)[O-])c1            n
12  COc1cc2c3c(n(CCCNC(C)C)c(=O)c2cc1OC)-c1nc2c(cc1C3=O)OCO2            n
13  CN1CCc2c(sc3ncnc(N/N=C/c4cn(-c5ccccc5)nc4-c4ccc(Cl)cc4)c23)C1            y
14  CCCn1c(O)c(N=Nc2nc(-c3cc4ccccc4oc3=O)cs2)c2cc(Br)ccc21            n
15  COc1ccc2[nH]c(=O)c(CSc3nccc(-c4ccc(Cl)cc4)n3)cc2c1            y
16  O=c1cc(-c2ccccc2)oc2cc(OCCCCNCc3ccccc3)cc(O)c12            n
17  CCOC(=O)C1=C(N)N(c2ccc(C)cc2)C2=C(C(=O)CC(C)(C)C2)C1c1ccccc1OC (centres undefined)            n
18  COc1cc(/C=C/C(=O)c2ccc(C(F)(F)F)cc2)ccc1Oc1nc(Nc2ccc(F)cc2)nc(N(C)C)n1            n
19  COc1ccc(-c2cc(C(=O)N=Nc3c(O)[nH]c4ccc(Br)cc34)c3ccccc3n2)cc1            n
20  CN1CCN(c2ccc(C(=O)/C=C/c3ccc(C#N)cc3)cc2)CC1            n
21  O=C(Nc1nc2ccc([N+](=O)[O-])cc2s1)Nc1ccccc1I            y
22  C=C1CCC2C3(C)COC(c4c(F)cccc4F)OC3CCC2(C)C1CC(O)C1=CCOC1=O (centres undefined)            y
23      COc1ccc(N(C)c2cc(C#N)nc3ccccc23)cc1N            y
24  CC(=C(c1ccc(OCCN2CCCCC2)cc1)c1ccc(OCCN2CCCCC2)cc1)c1ccccc1            n
25  COc1ccc2cc([C@H](C)C(=O)NCc3ccccc3)ccc2c1            y
26  NS(=O)(=O)c1ccc(NC(=O)CSc2ccc(-c3ccc(Cl)cc3)nn2)c(Br)c1            n
27  C=C1CCC2C3(C)COC(c4ccccc4F)OC3CCC2(C)C1C/C=C1/C(=O)OCC1O (centres undefined)            y
28  Cc1cccc2cc(-c3cc(-c4ccccc4)nc(=O)[nH]3)c(Cl)nc12            n
29  O=C1c2ccccc2C(=O)c2c1c(C(=O)c1ccc(Cl)cc1)n1c2ccc2c3ccccc3ccc21            n
30  COc1cccc(/C=C2\N=C(C)N(CCc3ccc(S(N)(=O)=O)cc3)C2=O)c1            n
31   Nc1nc(-c2ccccc2)cc(-c2cc3ccccc3nc2Cl)n1            n
32  CO[C@H]1CSS[C@@H]1Cn1nc(-c2ccc(Oc3ccccc3)cc2)c2c(N)ncnc21            y
33  COc1ccc2nc(Cl)c(-c3cc(-c4ccccc4)nc(N)n3)cc2c1            n
34  COc1ccc(C(=O)CSc2nnc(-c3c[nH]c4ccccc34)n2-c2ccccc2)cc1            n
35  CN(C)CCNC(=O)OCCCCOc1cc(O)c2c(=O)cc(-c3ccccc3)oc2c1            y
36  CCCS(=O)(=O)c1oc(-c2ccc(F)cc2)nc1S(=O)(=O)c1ccc(F)cc1            y
37  N#Cc1c(-c2ccc(F)cc2)nc(SCc2ccc(F)cc2)nc1N1CCOCC1            n
38  Nc1cccnc1/C=N/NC(=S)NCCNC(=O)c1ccc(-n2nc(-c3ccccc3O)nc2-c2ccccc2O)cc1            y

* * *

Tested on: CAKI-1 renal
Assay: NCI-60 one-dose screen, 48 h (100 = growth as untreated, 0 = no growth, -100 = all killed)
Details: 10 µM
About 83,000 compounds went through this panel and 20% of them were active in at least one assay; those are over-represented in the sample as a whole.
measured property: growth (%)

>>> df
                                   compound  measured_property    val
0  Cn1cc(/C=N/Nc2ccnc3cc(Cl)ccc23)c2ccccc21             growth  -85.3
1  C=C1CCC2C3(C)COC(c4c(F)cccc4F)OC3CCC2(C)C1CC(O)C1=CCOC1=O (stereo unspecified)             growth   72.5
2      CC(=O)NNc1ccc2nnc(-c3ccc(Br)cc3)n2n1             growth   90.3
3  COc1ccc(-c2nc(Nc3ccccc3S(N)(=O)=O)c3ccccc3n2)cc1             growth   7.47
4  O=C(Cn1nc(-c2ccccc2)ccc1=O)NNC(=S)NC1CCCCC1             growth   98.6
5  C=CC(=O)Nc1ccc(C(=O)/C=C/c2ccc(N(C)CCF)cc2)c(O)c1             growth  -90.8

* * *

Test system: NCI-H322M lung
Assay: NCI-60 one-dose screen, 48 h
Settings: 10 µM
The panel holds about 83,000 compounds, 20% with a hit somewhere; the sample as a whole holds those more often. The source made the active and inactive calls. Rule for the calls: active = growth percent below 10; inactive = the rest.
Outcomes: active, inactive

>>> df
                            molecule_smiles  group_label
0  N#Cc1c(NC(=O)c2ccc(C(F)(F)F)cc2C(F)(F)F)sc2c1CCC(=O)C2     inactive
1  CC(=O)Nc1nc(-c2ccc(N3CCN(C)CC3)c(NS(=O)(=O)c3cccc4c(N(C)C)cccc34)c2)cs1     inactive
2  CC(C)C1=C[C@@]23CC[C@@H]4[C@](C)(CCC[C@]4(C)C(=O)NCc4ccccc4)[C@H]2C[C@@H]1[C@H]1C(=O)CCC(=O)[C@H]13     inactive
3  O=C(CS(=O)(=O)c1oc(-c2ccc(Cl)cc2)nc1S(=O)(=O)c1ccccc1)N1CCCC1     inactive
4  COc1ccc(-c2cc(C(=O)N=Nc3c(O)[nH]c4ccccc34)c3ccccc3n2)cc1       active
5       Cc1ccc(C(C)C)cc1NC(=O)c1ccccc1N(C)C     inactive
6  O/N=C(\CSc1nnc(-c2c[nH]c3ccccc23)n1-c1ccccc1)c1ccc(Br)cc1       active
7  COc1cc2c(cc1OC)CN(CCCCOc1cc(O)c3c(=O)cc(-c4ccccc4)oc3c1)CC2     inactive
8  CCCn1c(=O)c2[nH]c(-c3ccc(OCc4nc5ccc(C#N)cc5[nH]4)cc3)nc2n(CCC)c1=O     inactive

* * *

Tested on: HCT-15 colon
Test: NCI-60 one-dose screen, 48 h (100 = growth as untreated, 0 = no growth, -100 = all killed)
Conditions: 10 µM
This is part of a sample that, as a whole, favours compounds with a hit. Of some 83,000 tested, about 20% had one in any assay.
measured property: growth (%)

>>> print(df.to_string())
                                    compound  measured_property    val
 0  COc1cccc(/C=N/NC(=O)c2ccc3nc(-c4ccc(Cl)cc4)[nH]c3c2)c1O             growth    4.8
 1  COc1ccccc1[C@H]1C(C(=O)c2ccc(Cl)cc2)C2(N[C@@H]1c1ccccc1)C(=O)Nc1ccc(Cl)cc12 (stereo partly specified)             growth   7.83
 2  O=C(Cn1nc(-c2ccccc2)ccc1=O)NN1C(=O)c2ccccc2C1=O             growth   99.2
 3  c1ccc(C(=C(c2ccc(OCCN3CCCCC3)cc2)c2ccc(OCCN3CCCCC3)cc2)C2CCCC2)cc1             growth   34.6
 4  CCCCCCCCCCCCCCCCCCCC(=O)NCCc1c[nH]c2ccc(OC(=O)CCCC(=O)OCCOOCCOOCCOOCCOOCCOOCCOOCCOOCCOOCCOOCCOOCCOOCCOC)cc12             growth     56
 5  COc1cccc(-c2ccnc(/N=C(\N)Nc3ccc(S(=O)(=O)Nc4nc(C)cc(C)n4)cc3)n2)c1             growth    104
 6  Cc1cccc(NC(=O)CSc2nc3ccc(F)cc3c(=O)n2-c2ccc(Cl)cc2)c1C             growth   70.5
 7  N#Cc1c(NC(=O)c2ccc(C(O)(C(F)(F)F)C(F)(F)F)cc2)sc2c1CCC(=O)C2             growth  -68.7
 8  N#Cc1c(NC(=O)c2ccc(C(F)(F)F)cc2C(F)(F)F)sc2c1CCC(=O)C2             growth    -66
 9  CC(C)C1=C[C@@]23CC[C@@H]4[C@](C)(CCC[C@]4(C)C(=O)NCc4ccccc4)[C@H]2C[C@@H]1[C@H]1C(=O)OC(=O)[C@H]13             growth   9.01
10  O=c1[nH]c2ccccc2cc1CSc1ccc(Nc2nccc(-c3ccc(Cl)cc3)n2)cc1             growth   8.92
11  CN(C(=O)c1ccc(C(F)(F)F)cc1C(F)(F)F)c1sc2c(c1C#N)CCC(=O)C2             growth   10.4
12  CCOC(=O)CNC(=O)CN(Cc1ccccc1)C(=O)[C@@]1(C)CCC[C@]2(C)[C@H]3C[C@H]4C(C(C)C)=C[C@]3(CC[C@H]21)[C@@H]1C(=O)OC(=O)[C@@H]14             growth     18
13  COc1ccc2[nH]c(=O)c(CSc3nccc(-c4ccc(Cl)cc4)n3)cc2c1             growth   36.3
14  COc1ccccc1C(=O)NNC(=O)CSc1nc2c(c(=O)[nH]1)CCCC2             growth    110
15  O=C(N=Nc1c(O)[nH]c2ccc(Br)cc12)c1ccc2nc(-c3ccccc3)[nH]c2c1             growth   63.2
16  COc1ccc(-c2ccc(SCC(=O)Nc3ccc(C#N)cc3)nn2)cc1             growth   97.3
17  O=c1c2ccccc2nc(COc2ccccc2)n1/N=C/c1ccc(N2CCOCC2)cc1             growth   80.8
18  Cc1cc(C(F)(F)F)ccc1C(=O)Nc1sc2c(c1C#N)CCC(=O)C2             growth  -69.5
19  O=C(CSc1nnc(-c2c[nH]c3ccccc23)n1-c1ccccc1)Nc1ccc(C(=O)/C=C/c2ccccc2Cl)cc1             growth     67
20  O=C1Nc2cc(Cl)ccc2/C1=C/c1cccc(OCc2ccc(Br)cc2F)c1             growth   5.07
21  N#Cc1ccc(-c2nn(-c3ccc(C(=O)O)cc3)cc2CNc2cccc(Br)c2)cc1             growth   35.5
22  N#Cc1ccc(-c2nn(-c3ccc(C(=O)O)cc3)cc2CNc2ccc(Cl)cc2)cc1             growth   47.3
23  O=C1Nc2cc(Cl)ccc2/C1=C/c1ccc(OCc2ccc(Br)cc2F)cc1             growth  -31.8
24  O=C(Nc1nc2ccc([N+](=O)[O-])cc2s1)Nc1ccccc1I             growth   1.19
25  COc1ccc(C(=O)Nc2ccc(-c3ccc4c(c3)NC(=O)/C4=C\c3ccc[nH]3)cc2)cc1             growth   15.2
26  COc1cccc(COc2ccc(/C=C3\Oc4cc(O)ccc4C3=O)cc2)c1             growth   42.1
27  COc1nccnc1NS(=O)(=O)c1ccc(NC2=C(Cl)C(=O)c3nc(C)ccc3C2=O)cc1             growth   93.7
28  COc1ccc(OC)c(-c2cc(-c3c[nH]c4ccccc34)nc(N)c2C#N)c1             growth   1.05
29  CC(=O)Nc1ccc(-c2cn(-c3cccc(C(=O)Nc4ccc(Cl)c(C(F)(F)F)c4)c3)nn2)cn1             growth  -57.8
30  CN1CCN(c2ccc(Nc3nc(N4CCN(S(=O)(=O)c5ccc(Cl)cc5)CC4)c4sccc4n3)cc2)CC1             growth  -78.6
31  O=c1c2ccccc2nc(COc2ccccc2)n1/N=C/c1ccc(F)cc1             growth   76.5
32  CN1CCN(c2ccc(Nc3nc(N4CCN(S(=O)(=O)c5ccc(F)cc5)CC4)c4sccc4n3)cc2)CC1             growth  -79.8
33  O=S(=O)(c1ccc(Cl)cc1)c1nc(-c2ccccc2)oc1S(=O)(=O)c1ccc(Cl)cc1             growth   47.4
34  O=C(CS(=O)(=O)c1oc(-c2ccc(Cl)cc2)nc1S(=O)(=O)c1ccc(Cl)cc1)N1CCOCC1             growth  -53.6
35  O=C1Nc2ccc(Cl)cc2/C1=C/c1ccc(OCc2ccccn2)cc1             growth   35.7

Data credit: PubChem BioAssay (NCI)
